Target: T1, human oxytocin receptor (human, UniProt P30559 1-389)
T1 sequence (looked up): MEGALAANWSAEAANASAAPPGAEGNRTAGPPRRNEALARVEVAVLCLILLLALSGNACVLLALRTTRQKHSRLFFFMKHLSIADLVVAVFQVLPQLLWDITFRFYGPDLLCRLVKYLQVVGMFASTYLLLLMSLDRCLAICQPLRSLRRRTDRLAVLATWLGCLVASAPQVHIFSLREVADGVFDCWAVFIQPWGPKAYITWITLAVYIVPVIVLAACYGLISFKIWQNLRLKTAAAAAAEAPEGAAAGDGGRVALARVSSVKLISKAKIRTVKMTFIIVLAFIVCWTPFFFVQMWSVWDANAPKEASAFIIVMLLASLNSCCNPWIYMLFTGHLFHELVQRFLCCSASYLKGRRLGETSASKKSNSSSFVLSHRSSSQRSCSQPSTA
Test: cell-based or functional assay
Bridges are numbered along the chain shown (N, C = ends). Where no end group is shown, it is not given here. [ ]: non-standard residue; d: D form. Sec = N[C@@H](C[SeH])C(=O)O
# Emax, IP-One HTRF assay values compiled below
Answer format: number, then unit.

[Sec]YIQNCPLG-NH2 (bridge 1-6 via selenosulfide) [[C1U]-OT] ... 84%
CYIQN[Sec]PLG-NH2 (bridge 1-6; also: selenosulfide bond) [[C6U]-OT] ... 55%
XYIQNXPLG (L-selenocysteine at positions 1 and 6, diselenide bridge; free C-terminal carboxylic acid, also called [Se-Se]-OT-OH) [[C1,6U]-OT-OH] ... 60%

Okay, next one:
// Emax, IP-One HTRF assay value for XYIQNXPLG (by its name: desaminoselenocysteine (3-selenopropanoic acid) at position 1, L-selenocysteine at position 6, diselenide bridge; free C-terminal carboxylic acid; structure is not given) [d[C1,6U]-OT-OH] : 71%
